Molecular target: T1, FLT-1 IgG (UniProt P17948 27-758)
T1 construct: Construct only cited from Park et al. 1994; also called FLT-IgG; FLT-1 receptor-IgG chimera; not shown: IgG part of the chimera (captured by anti-human IgG Fc)
T1 sequence (P17948 27-758): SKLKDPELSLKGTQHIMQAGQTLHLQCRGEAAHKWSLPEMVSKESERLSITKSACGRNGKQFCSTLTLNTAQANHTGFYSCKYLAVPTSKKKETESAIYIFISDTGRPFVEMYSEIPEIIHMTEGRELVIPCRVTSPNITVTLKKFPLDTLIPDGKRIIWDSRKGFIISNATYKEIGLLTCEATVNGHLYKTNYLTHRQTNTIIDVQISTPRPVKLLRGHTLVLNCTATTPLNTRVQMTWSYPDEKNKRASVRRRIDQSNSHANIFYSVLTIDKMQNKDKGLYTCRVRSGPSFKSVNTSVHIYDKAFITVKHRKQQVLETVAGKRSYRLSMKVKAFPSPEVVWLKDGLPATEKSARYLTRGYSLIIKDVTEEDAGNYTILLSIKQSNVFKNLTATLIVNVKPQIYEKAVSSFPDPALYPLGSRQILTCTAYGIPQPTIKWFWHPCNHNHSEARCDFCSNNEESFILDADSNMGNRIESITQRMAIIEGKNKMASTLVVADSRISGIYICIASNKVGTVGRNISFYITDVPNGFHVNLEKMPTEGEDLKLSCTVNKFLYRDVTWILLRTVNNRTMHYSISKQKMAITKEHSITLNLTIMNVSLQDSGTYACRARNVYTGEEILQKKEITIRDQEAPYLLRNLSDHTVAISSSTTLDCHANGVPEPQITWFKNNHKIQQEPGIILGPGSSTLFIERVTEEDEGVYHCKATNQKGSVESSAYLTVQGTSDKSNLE
Assay: competition with 125I-VEGF165 for FLT-1-IgG, radioligand plate assay, no heparin
We begin with a simple list: items and their reported IC50.

binder | readout-units | IC50
RIK(82-84)NLS VEGF (ligand, potential N-linked glycosylation site at position 82 (extent of glycosylation not apparent), Neo-glycosylation mutant from 293 cells, conditioned medium; also called R82N, I83L, K84S) APMAEGGGQNHHEVVKFMDVYQRSYCHPIETLVDIFQEYPDEIEYIFKPSCVPLMRCGGCCNDEGLECVPTEESNITMQIMNLSPHQGQHIGEMSFLQHNKCECRPKKDRARQENPCGPCSERRKHLFVQDPQTCKCSCKNTDSRCKARQLELNERTCRCDKPRR | nM | 0.029
E44A VEGF (ligand, VEGF165 mutant from 293 cells, conditioned medium) APMAEGGGQNHHEVVKFMDVYQRSYCHPIETLVDIFQEYPDEIAYIFKPSCVPLMRCGGCCNDEGLECVPTEESNITMQIMRIKPHQGQHIGEMSFLQHNKCECRPKKDRARQENPCGPCSERRKHLFVQDPQTCKCSCKNTDSRCKARQLELNERTCRCDKPRR | nM | 0.009
wildtype VEGF165 expressed in 293 cells (ligand, N-linked carbohydrate at Asn75, Transiently expressed in 293 cells; tested as conditioned medium) APMAEGGGQNHHEVVKFMDVYQRSYCHPIETLVDIFQEYPDEIEYIFKPSCVPLMRCGGCCNDEGLECVPTEESNITMQIMRIKPHQGQHIGEMSFLQHNKCECRPKKDRARQENPCGPCSERRKHLFVQDPQTCKCSCKNTDSRCKARQLELNERTCRCDKPRR | nM | 0.022
